Can you tell me IC50 for the items I'm about to list?
- System: KB cells
- assay_procedure: In vitro KB cell cytotoxicity assay (crystal violet)
- Type: cell-based
- experimental_parameters: Homo sapiens, 72 h, 3 days culture, read-out: KB Cell Cytotoxicity TD50
Answers are plain numbers, in µg/mL.

Reference set (4 entries):
1) COc1ccc(C(=O)NC[C@@H]2CN3C(=O)C[C@H]3O2)cc1 (racemic)    0.255
2) C[C@H](N)C(=O)NCC(=O)OC[C@H]1CN2C(=O)C[C@@H]2O1.Cl (mixture of isomers) [Example 41B]    0.295
3) O=COCCCCCC(=O)NC[C@@H]1CN2C(=O)C[C@H]2O1 (racemic)    0.243
4) CC(=O)NC(COC(C)=O)C(=O)OC[C@H]1CN2C(=O)C[C@@H]2O1 (mixture of isomers) [Example 75B]    0.567

// for each compound in input: emit IC50
1. CC(=O)NC[C@@H]1CN2C(=O)C[C@H]2O1 [Example 3]
2. O=C(CO)NC[C@@H]1CN2C(=O)C[C@H]2O1 (racemic)
3. O=C(NCCCC[C@H](NC(=O)OCc1ccccc1)C(=O)OCC1CN2C(=O)CC2O1)OCc1ccccc1 (some centres unmarked) [Example 77A]
4. CC(C)[C@H](N)C(=O)NCC(=O)OC[C@H]1CN2C(=O)C[C@@H]2O1.Cl (mixture of isomers) [Example 42B]

1: 3.15; 2: 0.125; 3: 1.18; 4: 0.388

###

I'd appreciate it if you could supply inhibition in vivo at 100 mg/kg values for the items below.
- System: Sarcoma 180
- assay_procedure: In vivo antitumor activity against Sarcoma 180
- Parameters: species or system male ICR mice
- experimental_parameters: Mus musculus, Sarcoma-180, ip, 288 h; 100 mg/kg/day, i.p., days 1, 5 and 9; tumor s.c.; tumor weight day 12; read-out: % Inhibition of tumor growth
- Method: In Vivo Antitumor Activity Against Sarcoma 180 The compounds of general formula (I) were tested in vivo against Sarcoma 180 xenografted tumor to mice as illustrated herein after. Sarcoma 180, 5×10^6 cells were inoculated by S.C. to male ICR mice (6 week old) on day 0. […] Mice were killed and tumor weight was measured on day 12 after transplantation. The percentage inhibition of tumor growth was calculated from the mean tumor weight of the treated group compared with that of the control group. […]
Structures can show the parent of a compound that is named as a salt.
Numbers only, in %.

Solved entries (count: 6):
1) O=C(NC[C@@H]1CN2C(=O)C[C@H]2O1)c1ccccc1 (racemic) [Example 23]    27.8
2) CCCCCC(=O)NC[C@@H]1CN2C(=O)C[C@H]2O1 (racemic) [Example 4]    49.4
3) CC(C)[C@@H](N)C(=O)N[C@@H](C(=O)OCC1CN2C(=O)CC2O1)C(C)C (some centres unmarked) [Example 62B, hydrochloride]    42.1
4) N[C@@H](CC(=O)OC[C@H]1CN2C(=O)C[C@@H]2O1)C(=O)O (mixture of isomers) [Example 65B]    55
5) CC(C)[C@H](N)C(=O)OC[C@H]1CN2C(=O)C[C@@H]2O1.Cl (mixture of isomers) [Example 54B, hydrochloride]    84.3
6) CS(=O)(=O)NC[C@H]1CN2C(=O)C[C@H]2O1 (racemic) [Example 35]    64.6

Hi team, please reply with inhibition in vivo at 100 mg/kg for each item in this list.
1. O=C1C[C@H]2O[C@H](CNC(=O)C(F)(F)F)CN12 (racemic) [Example 7]
2. COc1ccc(S(=O)(=O)NC[C@H]2CN3C(=O)C[C@@H]3O2)cc1 (relative stereo) [Example 38]

39.8
72
